System: L. monocytogenes Scott A
Experiment: Minimal inhibitory concentration (MIC) and minimal bactericidal concentration (MBC), 96-well plate broth assay
Assay type: cell-based, Listeria monocytogenes
Details: Listeria monocytogenes, value in brackets, tested 1 up to 512 µg/mL, triplicate, read-out: MBC
Readings of MBC for the listed molecules
Form entry: value (µg/mL) — number only.

| molecule | measured.target | property.measured | result.number |
| --- | --- | --- | --- |
| [H]/N=C(\N/C(=N/[H])NCCCCCCNC(=N)NC(=N)Nc1ccc(Cl)cc1)Nc1ccc(Cl)cc1 [Chlorhexidine, reference compound] | L. monocytogenes Scott A | MBC | 32 |
| Oc1cc(O)cc(/C=C/c2ccc3occ(-c4cc(O)cc(O)c4)c3c2)c1 [Compound 5] | L. monocytogenes Scott A | MBC | 64 |
| COc1cc(/C=C/c2ccc(O)cc2)cc(OC)c1 [pterostilbene, reference compound] | L. monocytogenes Scott A | MBC | 128 |

Challenge: Form field: MBC recorded for Oc1ccc(-c2oc3ccccc3c2-c2cc(O)cc(O)c2)cc1 [Compound 3] with L. monocytogenes Scott A (enter value)
Response given: 64

Challenge: Now this one: Oc1ccc(-c2oc3ccc(/C=C/c4cc(O)cc(O)c4)cc3c2-c2cc(O)cc(O)c2)cc1 [Compound 1, dehydro-δ-viniferin]
Response given: 16

====

The following compounds are shown together with reported MIC values.
Tested on: L. monocytogenes Scott A
Experiment: Minimal inhibitory concentration (MIC) and minimal bactericidal concentration (MBC), 96-well plate broth assay
Assay type: cell-based, Listeria monocytogenes
Conditions: Listeria monocytogenes, MIC as µM concentration, read-out: MIC
Numeric answer only, unit µM assumed.

| compound | result.number |
| --- | --- |
| [H]/N=C(\N/C(=N/[H])NCCCCCCNC(=N)NC(=N)Nc1ccc(Cl)cc1)Nc1ccc(Cl)cc1 [Chlorhexidine, reference compound] | 15.8 |
| Oc1ccc(-c2oc3ccc(/C=C/c4cc(O)cc(O)c4)cc3c2-c2cc(O)cc(O)c2)cc1 [Compound 1, dehydro-δ-viniferin] | 4.42 |
| COc1ccc(-c2cc3cc(/C=C/c4cc(OC)cc(OC)c4)ccc3o2)cc1 [Compound 10] | 662 |
| Oc1ccc(-c2cc3cc(/C=C/c4cc(O)cc(O)c4)ccc3o2)cc1 [Compound 4] | 743 |

Challenge: Reported MIC for Oc1ccc(/C=C/c2cc(O)cc3oc(-c4ccc(O)cc4)c(-c4cc(O)cc(O)c4)c23)cc1 [Compound 2, viniferifuran] : what is it?
Response given: 35.4

Challenge: Would you kindly repeat that for COc1ccc(-c2oc3cc(OC)ccc3c2-c2cc(OC)cc(OC)c2)cc1 [Compound 11] ?
Response given: 656

Challenge: Same thing, different compound: Oc1ccc(-c2oc3cc(O)ccc3c2-c2cc(O)cc(O)c2)cc1 [Compound 6]
Response given: 191

====

Some molecules, each annotated with its measured MIC.
Test system: L. monocytogenes Scott A
Assay: Minimal inhibitory concentration (MIC) and minimal bactericidal concentration (MBC), 96-well plate broth assay
Type: cell-based, Listeria monocytogenes
Settings: Listeria monocytogenes, MIC as µM concentration, read-out: MIC
Please give a number only; it is taken to be in µM.

Some molecules with known MIC results, for comparison:
| molecule | unit.info | MIC |
| --- | --- | --- |
| Oc1ccc(-c2oc3ccccc3c2-c2cc(O)cc(O)c2)cc1 | µM | 50.3 |
| COc1cc(/C=C/c2ccc3oc(-c4ccc(O)cc4)cc3c2)cc(OC)c1 | µM | 1370 |
| COc1cc(/C=C/c2ccc(O)cc2)cc(OC)c1 [pterostilbene, reference compound] | µM | 250 |

Let us move to another entry and its MIC.
Challenge: // MIC lookup, key: Oc1cc(O)cc(/C=C/c2ccc3occ(-c4cc(O)cc(O)c4)c3c2)c1
Response given: 44.4

====

Tested on: L. monocytogenes Scott A
Assay: Minimal inhibitory concentration (MIC) and minimal bactericidal concentration (MBC), 96-well plate broth assay
Assay type: cell-based, Listeria monocytogenes
Conditions: Listeria monocytogenes, value in brackets, tested 1 up to 512 µg/mL, triplicate, read-out: MBC
property.measured: MBC

Some compounds with recorded MBC:
| record.smiles | measured.target | MBC |
| --- | --- | --- |
| Oc1ccc(-c2oc3cc(O)ccc3c2-c2cc(O)cc(O)c2)cc1 | L. monocytogenes Scott A | > 512 µg/mL |
| COc1ccc(-c2cc3cc(/C=C/c4cc(OC)cc(OC)c4)ccc3o2)cc1 | L. monocytogenes Scott A | > 256 µg/mL |
| Oc1ccc(/C=C/c2cc(O)cc3oc(-c4ccc(O)cc4)c(-c4cc(O)cc(O)c4)c23)cc1 | L. monocytogenes Scott A | > 512 µg/mL |
| COc1ccc(-c2oc3cc(OC)ccc3c2-c2cc(OC)cc(OC)c2)cc1 | L. monocytogenes Scott A | > 256 µg/mL |
| COc1cc(/C=C/c2ccc3oc(-c4ccc(O)cc4)cc3c2)cc(OC)c1 | L. monocytogenes Scott A | > 512 µg/mL |

// below: MBC requested for another compound
Challenge: Find the recorded MBC belonging to Oc1ccc(-c2cc3cc(/C=C/c4cc(O)cc(O)c4)ccc3o2)cc1 and report it.
Response given: > 512 µg/mL
